The reported numbers originate from PubChem BioAssay (NCI).

- Test system: SF-539 CNS
- TEST SUMMARY: NCI tumour cell line growth inhibition, 48 h; in the data active = GI50 below about 0.43 µM; inactive = the rest
Outcomes: yes (1) for active, no (0) for inactive

1. Nc1nc2c(c3cnccc13)C(c1ccc(Cl)c(Cl)c1)Cc1cnccc1-2 (stereo unspecified) = no (0)
2. O=C(/C=C/C12c3ccccc3C(c3ccccc31)C1C(=O)NC(=O)C12)c1ccccn1 (stereo unspecified) = no (0)
3. O=C(Nc1cccc(-n2cc(-c3ccncc3)c(-c3cc(O)cc(Cl)c3)n2)c1)c1ccc(N2CCOCC2)c(C(F)(F)F)c1 = no (0)
4. Cc1c(C(=N)C(C#N)C#N)c(=N)oc2c1ccc1ccccc12 = no (0)
5. CSC1=Nc2c(c(C)c(C)n2COC(CO)CO)C2=NC(=O)CN12 = no (0)
6. OC1(c2ccc(Cl)c(C(F)(F)F)c2)CCN(CCCC(c2ccc(F)cc2)c2ccc(F)cc2)CC1 = no (0)
7. CN[C@@H](C)C(=O)N[C@H]1CN(S(=O)(=O)c2cccc(S(=O)(=O)N3CC[C@H]4CC[C@@H](C(=O)NC(c5ccccc5)c5ccccc5)N4C(=O)[C@@H](NC(=O)[C@H](C)NC)C3)c2)CC[C@H]2CC[C@@H](C(=O)NC(c3ccccc3)c3ccccc3)N2C1=O = yes (1)
8. O=C(NCCNCCO)c1ccc2c(c1)oc1cc3ccccc3c(=O)n12 = no (0)
9. CCN(CC)Cc1cc(Nc2nc(NC3CCC(N(C)C)CC3)c3ccccc3n2)ccc1OC (stereo unspecified) = no (0)
10. COc1ccc2c(c1)C(=O)c1c-2c(Nc2ccccc2OC)nc2ccccc12 = no (0)
11. Cc1ccc2c(-c3ccnc(Nc4ccc5c(c4)OCCO5)n3)c(-c3ccc(C(F)(F)F)cc3)nn2n1 = no (0)
